measurement_name: melting point

{"molecule": "CCc1c(Oc2ncc(C(F)(F)F)cc2Cl)nn(C(=O)NC)c1C", "experimental_value": "84 to 86 °C"}
{"molecule": "O=C(O)c1ccc(OCc2ccc3ccccc3n2)cc1", "experimental_value": "> 300 °C"}
{"molecule": "C=C1C[C@@H]2[C@H](CC[C@]3(C)C(=O)CC[C@@H]23)[C@@]2(C)CCC(=O)C(S)=C12", "experimental_value": "195 to 197 °C"}
{"molecule": "CC(N)CN(C)C(=O)c1ccccc1 (centres undefined)", "experimental_value": "102 °C"}
{"molecule": "CC(C)(OCc1nn(Cc2ccccc2)c2ccccc12)C(=O)NNC(N)=O", "experimental_value": "174 to 175 °C"}
{"molecule": "CC1=C(C(=O)OC(CN2CCCCC2)c2ccccc2)C(c2cccc([N+](=O)[O-])c2)n2ccnc2N1 (centres undefined)", "experimental_value": "205 to 206 °C"}
{"molecule": "C=CCN1C2CCC1C1CCC2N1C(c1ccc(C(=O)N(C)C)cc1)c1cccc(OC)c1 (centres undefined)", "experimental_value": "100 to 103 °C"}
{"molecule": "CC(C)(CC(O)(C(=O)Nc1ccccc1)C(F)(F)F)c1cc(F)ccc1O (centres undefined)", "experimental_value": "124 to 126 °C"}
{"molecule": "O=C(O)c1ccccc1Sc1c(O)c2c(Cl)cc(Cl)cc2[nH]c1=O", "experimental_value": "> 300 °C"}
{"molecule": "O=C(Nc1c[nH]nc1C(=O)NCCc1ccccc1)c1ccccn1", "experimental_value": "214 to 215 °C"}
{"molecule": "CCN(CC)C(=O)c1ccc(C(c2cccc(O)c2)N2CC(C)N(CC#N)CC2C)cc1 (centres undefined)", "experimental_value": "190 to 192 °C"}
{"molecule": "CCCn1nc2c(N)nc3c(c2c1CC(C)(C)O)CCCC3", "experimental_value": "143 to 145 °C"}
{"molecule": "Cc1cc(Br)cn2cc(-c3ccc(C#N)cc3)nc12", "experimental_value": "209 to 210 °C"}
{"molecule": "CCOC(=O)c1cn(C2CC2)c2cc(N3C[C@@H](C)N[C@@H](C)C3)c(F)c(N)c2c1=O", "experimental_value": "194 to 196 °C"}
